target: Peptidyl-prolyl cis-trans isomerase FKBP1A (Homo sapiens, UniProt P62942)
Sequence (P62942 whole entry): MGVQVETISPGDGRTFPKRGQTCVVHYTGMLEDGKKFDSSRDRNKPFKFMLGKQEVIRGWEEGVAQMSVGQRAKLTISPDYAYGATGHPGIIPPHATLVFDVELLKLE
pIC50: −log10 of the molar value.
Recorded pIC50 by entry

[
  {
    "compound": "CCC(C)C(=O)C(=O)N1CCCCC1C(=O)OC(CCc1ccccc1)c1ccccc1 (stereo not given)",
    "result_operator": "<",
    "pIC50": 4.52
  },
  {
    "compound": "CCOC(=O)C1CCCCN1C(=O)C(=O)C(C)CC (stereo not given)",
    "result_operator": "<",
    "pIC50": 4.52
  },
  {
    "compound": "CCOC(=O)C1CCCCN1S(=O)(=O)c1cccc([N+](=O)[O-])c1 (stereo not given)",
    "result_operator": "=",
    "pIC50": 5.55
  },
  {
    "compound": "COc1cc(CCCOC(=O)C2CCCCN2S(=O)(=O)c2cccc(N)c2)cc(OC)c1OC (stereo not given)",
    "result_operator": "=",
    "pIC50": 6.59
  },
  {
    "compound": "O=C(OCCCc1cccnc1)C1CCCCN1S(=O)(=O)c1cccc([N+](=O)[O-])c1 (stereo not given)",
    "result_operator": "=",
    "pIC50": 6.82
  }
]
